# Toxicity annotations
# experimental_system: Aspartate aminotransferase, mitochondrial (Mus musculus)
# procedure_text: In vivo toxic effect as serum aspartate aminotransferase (ASAT) 24 hr after cholesterol complexed 50 ug pTG11033 plasmid injection into mice
# Assay type: functional, organism-based

[
  {
    "molecule": "CCCCCCCCCCCCCCOP(=O)(C[N+](C)(C)C)OCCCCCCCCCCCCCC.[I-]",
    "Toxicity": 75
  },
  {
    "molecule": "CCCCCCCC/C=C/CCCCCCCCOP(=O)(CC[P+](C)(C)C)OCCCCCCCC/C=C/CCCCCCCC.[I-]",
    "Toxicity": 685
  },
  {
    "molecule": "CCCCCCCCCCCCCCOP(=O)(CC[As+](C)(C)C)OCCCCCCCCCCCCCC.[I-]",
    "Toxicity": 190
  },
  {
    "molecule": "CCCCCCCC/C=C\\CCCCCCCC(=O)OCC(C[N+](C)(C)C)OC(=O)CCCCCCC/C=C\\CCCCCCCC.[Cl-] (configuration not stated)",
    "Toxicity": 255
  },
  {
    "molecule": "CCCCCCCC/C=C/CCCCCCCCOP(=O)(CC[As+](C)(C)C)OCCCCCCCC/C=C/CCCCCCCC.[I-]",
    "Toxicity": 600
  },
  {
    "molecule": "CCCCCCCCCCCCCCOP(=O)(CC[P+](C)(C)C)OCCCCCCCCCCCCCC.[I-]",
    "Toxicity": 174
  },
  {
    "molecule": "CCCCCCCC/C=C/CCCCCCCCOP(=O)(C[N+](C)(C)C)OCCCCCCCC/C=C/CCCCCCCC.[I-]",
    "Toxicity": 225
  }
]
